Would you mind telling me the reported MIC of each entry?
System: E. fecium
Numbers only, in µg/mL.

SMILES NOTATION	STUDY SYSTEM	MIC / µg/mL
CCc1cc(Nc2cc(=O)n(CCCCCNC[C@H]3CCNC3)c(=O)[nH]2)ccc1C	E. fecium	80
CCc1cc(Nc2cc(=O)n(CCCCCn3cnc4c(=O)n(C)c(=O)n(C)c43)c(=O)[nH]2)ccc1C	E. fecium	10
CCc1cc(Nc2cc(=O)n(CCOCCOCCO)c(=O)[nH]2)ccc1C	E. fecium	10

For the 2 compounds below, give their MIC values.
1. CCc1cc(Nc2cc(=O)n(CCCCNC(=O)CCl)c(=O)[nH]2)ccc1C
2. CCc1cc(Nc2cc(=O)n(CCCCN3CCOCC3)c(=O)[nH]2)ccc1C

1: 10; 2: 2.5
